- Test system: Staphylococcus aureus
- Method description: Antibacterial activity against Staphylococcus aureus PU32 by microbroth dilution method
- Format: functional

>  <Record smiles>
CC[C@H]1OC(=O)[C@H](C)C(=O)[C@H](C)[C@@H](O[C@@H]2O[C@H](C)C[C@H](N(C)C)[C@H]2O)[C@](C)(OC)C[C@@H](C)C(=O)[C@H](C)[C@H]2N(CCCCCCC#Cc3ccc4c(=O)c(C(=O)O)cn(C5CC5)c4c3)C(=O)O[C@]12C

>  <Tested system>
Staphylococcus aureus

>  <MIC (µg/mL)>
4

$$$$
>  <Record smiles>
CC[C@H]1OC(=O)[C@H](C)C(=O)[C@H](C)[C@@H](O[C@@H]2O[C@H](C)C[C@H](N(C)C)[C@H]2O)[C@](C)(OC)C[C@@H](C)C(=O)[C@H](C)[C@H]2N(CCCCCC#Cc3ccc4c(=O)c(C(=O)O)cn(C5CC5)c4c3)C(=O)O[C@]12C

>  <Tested system>
Staphylococcus aureus

>  <MIC (µg/mL)>
4

$$$$
>  <Record smiles>
O=C(O)c1cn(C2CC2)c2cc(N3CCNCC3)c(F)cc2c1=O

>  <Tested system>
Staphylococcus aureus

>  <MIC (µg/mL)>
32

$$$$
